Test system: SNB-75 CNS
Experiment: NCI tumour cell line growth inhibition, 48 h
Reported Metric: TGI

Requested read-out TGI, target or system SNB-75 CNS, entry CC(=O)O[C@H]1C[C@@H](OC(C)=O)[C@@](C)(O)[C@@H]2[C@@H](OC(C)=O)[C@@]3(O)[C@H](/C=C(/CCl)[C@H]4O[C@H]4[C@@H](OC(C)=O)[C@@]12C)OC(=O)[C@@H]3C
> 25 µM

Requested read-out TGI, target or system SNB-75 CNS, entry COC(=O)c1cc2ccccc2c2nc3ccccc3c(Cl)c12
> 100 µM

Requested read-out TGI, target or system SNB-75 CNS, entry CC1=C2CC(C)(C)CC(=O)C2(C)CCC1=O (stereo not given)
> 100 µM

Requested read-out TGI, target or system SNB-75 CNS, entry C=C1C(=O)O[C@@H]2[C@H]1C[C@H](I)[C@@]1(C)CC[C@H](O1)[C@](C)(I)CCCC(C)[C@@H]2O (stereo not given in full)
21.3 µM

Requested read-out TGI, target or system SNB-75 CNS, entry COC1(c2ccccc2)NC(=S)NN=C1c1ccccc1 (stereo not given)
97.5 µM

Requested read-out TGI, target or system SNB-75 CNS, entry Cc1cc(NS(=O)(=O)c2ccc(NC(=O)c3ccc4nc5ccccc5c(Nc5ccc(S(=O)(=O)Nc6cc(C)on6)cc5)c4c3)cc2)no1
> 50 µM

Requested read-out TGI, target or system SNB-75 CNS, entry O=C(NN1C(=O)C(Cl)C1c1c(O)ccc2ccccc12)c1ccccc1O (stereo not given)
> 100 µM

Requested read-out TGI, target or system SNB-75 CNS, entry COc1cccc(Nc2nc(NS(=O)(=O)c3cc(C)c(Cl)cc3S)n[nH]2)c1
> 100 µM

Requested read-out TGI, target or system SNB-75 CNS, entry O=C(/C=C/c1ccc(Cl)cc1)c1ccc(Cl)s1
> 100 µM

Requested read-out TGI, target or system SNB-75 CNS, entry CSc1nc(C)c(CCOC(C)=O)c(N=P(c2ccccc2)(c2ccccc2)c2ccccc2)n1
> 10 µM

Requested read-out TGI, target or system SNB-75 CNS, entry CCOC(=O)C1=C(C)N(CC(C)C)C2(O)C(OC)CC(=O)C3C(=O)N(c4ccccc4)C(=O)C132 (stereo not given)
75.4 µM

Requested read-out TGI, target or system SNB-75 CNS, entry COCCOCCOCCC(=O)NC1CC2CCC1(C)C2(C)C (stereo not given)
> 100 µM

Requested read-out TGI, target or system SNB-75 CNS, entry Nc1ncc(Sc2ccccc2C(=O)O)s1
> 100 µM

Requested read-out TGI, target or system SNB-75 CNS, entry C1=C(c2ccccc2)C(OC2Oc3ccccc3C=C2c2ccccc2)Oc2ccccc21 (stereo not given)
> 100 µM

Requested read-out TGI, target or system SNB-75 CNS, entry O=C1NC2=NN=C(c3ccc(Br)cc3)CN2NC12c1ccccc1-c1ccccc12
> 100 µM

---

Tested on: HCT-116 colon
Experiment: NCI tumour cell line growth inhibition, 48 h
Reported Metric: TGI

Requested read-out TGI, target or system HCT-116 colon, entry O=C(O)c1ccccc1CC(Cc1ccccc1)C(=O)O (configuration not stated)
> 100 µM

Requested read-out TGI, target or system HCT-116 colon, entry CON(C)C(=O)C(C)NC(=O)OC(C)(C)C (configuration not stated)
> 100 µM

Requested read-out TGI, target or system HCT-116 colon, entry CCOC(=O)n1c2ccccc2c(=O)n1CCO
> 100 µM

Requested read-out TGI, target or system HCT-116 colon, entry N=C(N)c1ccc(N=Nc2c(O)ccc3cc(O)ccc23)cc1
> 100 µM

Requested read-out TGI, target or system HCT-116 colon, entry Nc1n[nH]c2ccc([C@@H]3Nc4c(F)cc5[nH]ncc5c4[C@H]4C5CCC(C5)[C@@H]34)cc12 (some centres not stated)
6.22 µM

Requested read-out TGI, target or system HCT-116 colon, entry COc1cccc(/C=N/[N-]C(N)=O)c1[O-].[OH3+].[Pd+2]
> 100 µM

Requested read-out TGI, target or system HCT-116 colon, entry CC1(CCCCO)C=CC(S(=O)(=O)c2ccccc2)CC1 (configuration not stated)
12.6 µM

Requested read-out TGI, target or system HCT-116 colon, entry CN1CC[C@]23c4c5ccc(O)c4OC2c2[nH]ncc2C[C@H]3[C@H]1C5 (some centres not stated)
> 100 µM

Requested read-out TGI, target or system HCT-116 colon, entry Cc1ccc(-c2nc(C(Cl)Cl)nc3cc(C)nn23)cc1
> 100 µM

Requested read-out TGI, target or system HCT-116 colon, entry Cc1csc(CCC(N)C(=O)O)n1 (configuration not stated)
> 100 µM

Requested read-out TGI, target or system HCT-116 colon, entry O=S(=O)(Cc1ccccc1)SCc1ccccc1
35.4 µM

Requested read-out TGI, target or system HCT-116 colon, entry O=C(Nc1ccc(Cl)c(C(F)(F)F)c1)C(=O)c1c(O)c2ccccc2oc1=O
> 100 µM

Requested read-out TGI, target or system HCT-116 colon, entry C1CCN2CC3CONC3C2C1 (configuration not stated)
> 100 µM

Requested read-out TGI, target or system HCT-116 colon, entry CC1=NNC(=O)[C@H]2[C@H]1CCC1[C@@H]2CC[C@]2(C)[C@@H](O)CC[C@@H]12 (some centres not stated)
> 100 µM

Requested read-out TGI, target or system HCT-116 colon, entry N#Cc1cccc(C2C3=C(COC3=O)N(CCO)c3cc4c(cc32)CCC4)c1 (configuration not stated)
13.3 µM

Requested read-out TGI, target or system HCT-116 colon, entry N#C[C@H](C(=O)c1ccccc1F)c1nc2ccccc2[nH]1
> 100 µM

Requested read-out TGI, target or system HCT-116 colon, entry Nc1c(C(=O)Nc2ccccc2O)[n+]([O-])c2ccccc2[n+]1[O-]
> 100 µM

Requested read-out TGI, target or system HCT-116 colon, entry CCN(CC)C(=O)CCCCCn1c2ccccc2c2c3c(c4c5ccccc5[nH]c4c21)C(=O)N(O)C3=O
28.1 µM

Requested read-out TGI, target or system HCT-116 colon, entry COc1cccc(/C=C2/S/C(=N/Nc3nc(C)c(C(C)=O)s3)NC2=O)c1O
> 100 µM

Requested read-out TGI, target or system HCT-116 colon, entry Cn1c(=O)c(C(=O)NC23CC4CC(CC(C4)C2)C3)c(O)c2ccccc21
57.9 µM

Requested read-out TGI, target or system HCT-116 colon, entry CO/C(=N\N=C(/c1ccccc1)C(F)(F)F)c1ccncc1
> 100 µM

Requested read-out TGI, target or system HCT-116 colon, entry CCOC(=O)C1=C(C)N(CC(C)C)C2(O)C(OC)CC(=O)C3C(=O)N(c4ccccc4)C(=O)C132 (configuration not stated)
> 100 µM

---

System: COLO 205 colon
Test: NCI tumour cell line growth inhibition, 48 h; in the data active means GI50 below about 0.43 µM; inactive means the rest
Entry note: the call must match one of active, inactive

What is the recorded call for this compound in the test? O=C(Nc1nc2c(s1)CCc1c-2c(Br)n(Cc2ccccc2)c1Br)c1ccccc1
inactive

What is the recorded call for this compound in the test? CCOC(=O)C1=CSC2=NC3=C(CCC/C3=C\c3cc(OC)c(OC)c(OC)c3)C(c3cc(OC)c(OC)c(OC)c3)N12 (centres undefined)
inactive

What is the recorded call for this compound in the test? CCN(CC)Cc1cc(Nc2cc(C(F)(F)F)c(C#N)c3nc4ccccc4n23)ccc1O
inactive

What is the recorded call for this compound in the test? CCN(CCNc1ccc(C)c2sc3cc(Cl)ccc3c(=O)c12)CC(C)(C)O
inactive

What is the recorded call for this compound in the test? CC1(C)CC(O)CC(C)(C)N1.CC1(C)CC(O)CC(C)(C)N1.CC1(C)CC(O)CC(C)(C)N1.CC1(C)CC(O)CC(C)(C)N1.Cl.[Ti]
inactive

What is the recorded call for this compound in the test? CCN(CC)CCS(=O)(=O)CCNc1ccnc2cc(Cl)ccc12
inactive

What is the recorded call for this compound in the test? Nc1n[nH]c2ccc([C@@H]3Nc4c(F)cc5[nH]ncc5c4[C@H]4C5CCC(C5)[C@@H]34)cc12 (some centres undefined)
active

What is the recorded call for this compound in the test? COc1cc(OC)c(/C=C/C(=O)c2c(N)cc(OC)cc2OC)c(OC)c1
inactive

What is the recorded call for this compound in the test? CC(C)C/C(=N\NC(=O)c1ccncc1)c1cc(Cl)ccc1O
active

---

System: OVCAR-8 ovarian
Assay: NCI tumour cell line growth inhibition, 48 h; in the data active means GI50 below about 0.43 µM; inactive means the rest
Entry note: the call must match one of 1 (yes) = active, 0 (no) = inactive

What is the recorded call for this molecule in the test? Cc1ccc(C(=O)N2C/C(=C/c3ccccc3)C(=O)/C(=C/c3ccccc3)C2)cc1
0 (no)

What is the recorded call for this molecule in the test? Nc1ccn([C@@H]2S[C@H](CO)[C@@H](O)[C@@H]2F)c(=O)n1
1 (yes)

What is the recorded call for this molecule in the test? Cc1ccc(NC2=CC(=O)C(=O)c3ccccc32)c(C)c1
0 (no)

What is the recorded call for this molecule in the test? CCOc1cc(/C=C/C(=O)CC(=O)/C=C/c2ccc(OC(=O)CNCCN(CC)CC)c(OCC)c2)ccc1OC(=O)CNCCN(CC)CC
0 (no)

What is the recorded call for this molecule in the test? O=C(Nc1cccc(-n2cc(-c3ccncc3)c(-c3ccc(O)c(Cl)c3)n2)c1)Nc1ccc(Cl)c(Cl)c1
0 (no)

What is the recorded call for this molecule in the test? CN(C)CCS(=O)(=O)Nc1cc(-c2ccc3ncnc(Nc4ccc(F)c(Cl)c4)c3c2)cnc1Cl
0 (no)

What is the recorded call for this molecule in the test? Cc1ccc(-c2nc(C(Cl)Cl)nc3cc(C)nn23)cc1
0 (no)

What is the recorded call for this molecule in the test? Cc1ccc(O)cc1Nc1ccnc2cc(-c3ccccn3)ccc12
0 (no)

What is the recorded call for this molecule in the test? CC1=NN(c2nc(N)nc(/C=C\c3ccccc3)n2)C(C)(C)C1
0 (no)

What is the recorded call for this molecule in the test? COC(=O)c1ccc2c(c1)C(=O)c1c-2n(CCCCl)c(=O)c2cc(OC)c(OC)cc12
0 (no)

What is the recorded call for this molecule in the test? CCc1ccc(C2=NN(c3ccc(S(C)(=O)=O)cc3)C(=O)CC2)cc1
0 (no)

What is the recorded call for this molecule in the test? C=CC[PH+](c1ccccc1)c1ccccc1.C=CC[PH+](c1ccccc1)c1ccccc1.[Pt+2].[S-]c1ncccn1.[S-]c1ncccn1
0 (no)

What is the recorded call for this molecule in the test? Oc1ccc(-c2[nH]c3ccccc3c2-c2nc3ccccc3o2)cc1
0 (no)

What is the recorded call for this molecule in the test? COc1cc2c3c(n(CCCN4CCSCC4)c(=O)c2cc1OC)-c1cc2c(cc1C3=O)OCO2
0 (no)

What is the recorded call for this molecule in the test? c1ccc2c(c1)[O][Sn][O]2
0 (no)

What is the recorded call for this molecule in the test? Cc1cn2c(/C=C3/C(=O)Nc4ccc(C(=O)O)cc43)c(C)nc2s1
0 (no)

What is the recorded call for this molecule in the test? Cc1ccc(NC(=O)c2ccc(NC3=C(Cl)C(=O)N(Cc4ccccc4)C3=O)cc2)cc1Cl
0 (no)
